# Read-out: Broad substrate specificity ATP-binding cassette transporter ABCG2 (Homo sapiens) (UniProt Q9UNQ0)
# Sequence (Q9UNQ0 whole entry, looked up): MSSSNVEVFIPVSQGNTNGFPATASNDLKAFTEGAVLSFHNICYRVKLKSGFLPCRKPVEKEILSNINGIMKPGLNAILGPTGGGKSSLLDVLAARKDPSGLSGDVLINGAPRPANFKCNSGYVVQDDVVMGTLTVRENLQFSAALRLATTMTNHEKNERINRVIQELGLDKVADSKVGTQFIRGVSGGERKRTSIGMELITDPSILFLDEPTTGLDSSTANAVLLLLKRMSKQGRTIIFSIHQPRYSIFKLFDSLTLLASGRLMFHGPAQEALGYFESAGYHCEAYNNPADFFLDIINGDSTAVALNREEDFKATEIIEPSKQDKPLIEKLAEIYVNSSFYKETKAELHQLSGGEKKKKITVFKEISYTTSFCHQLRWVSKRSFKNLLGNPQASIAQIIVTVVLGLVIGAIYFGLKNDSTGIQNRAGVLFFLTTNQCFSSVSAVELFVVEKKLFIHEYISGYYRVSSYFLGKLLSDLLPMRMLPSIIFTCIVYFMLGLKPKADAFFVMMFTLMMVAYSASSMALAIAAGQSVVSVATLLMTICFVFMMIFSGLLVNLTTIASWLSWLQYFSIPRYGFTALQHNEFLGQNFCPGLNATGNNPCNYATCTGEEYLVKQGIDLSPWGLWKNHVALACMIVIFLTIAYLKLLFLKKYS
# Procedure Summary: LTEA_HepaRG_ABCG2: Life Technologies and Expression Analysis (LTEA) Assay for ABC Transporter (ABCG2) using HepaRG (AID 2283465)
# Condition Details: mRNA level, 48 h; actives raise or lower the signal
The source made the active and inactive calls. The calls were made as follows: active = hit-call score of the fitted dose curve at least 0.9, where 1 is the maximum; inactive = score below 0.9.
Measured Endpoint: outcome

Query string: # input compound: CN(C)c1ccc(Cc2ccc(N(C)C)cc2)cc1 ; wanted: its outcome
Result string: inactive

Query string: Follow-up item: Fc1ccccc1[C@@H](F)COC1CCC(Nc2ncnc3[nH]ncc23)CC1 (stereo partly drawn)
Result string: inactive

Query string: Follow-up item: CC(C)CCCCCCOC(=O)c1ccc(C(=O)OCCCCCCC(C)C)c(C(=O)OCCCCCCC(C)C)c1
Result string: inactive

---

# Read-out: Cytochrome P450 2C19 (Homo sapiens)
# Procedure Summary: LTEA_HepaRG_CYP2C19: Life Technologies and Expression Analysis (LTEA) Assay for CYP2C19 using HepaRG (AID 2283482)
# Condition Details: mRNA level, 48 h; actives raise or lower the signal
The source made the active and inactive calls. The calls were made as follows: active = hit-call score of the fitted dose curve at least 0.9, where 1 is the maximum; inactive = score below 0.9.
Write down the outcome that applies. Available outcomes: YES for active, NO for inactive

Solved cases (3 shown):
Query string: Please state the recorded outcome for this compound: Nc1ccc(Nc2ccccc2)cc1
Result string: NO

Query string: Follow-up item: CC1=CC(=O)CC(C)(C)C1
Result string: NO

Query string: Follow-up item: O=C(CCCCCCCCc1cccnc1)N1CCC(C=C(c2ccccc2)c2ccccc2)CC1
Result string: YES

More entries:
Query string: Please state the recorded outcome for this compound: C=CCCCCCCCCC(=O)O
Result string: NO

Query string: Follow-up item: O=C1CCC(N2C(=O)c3ccccc3C2=O)C(=O)N1 (stereo unspecified)
Result string: NO

Query string: Follow-up item: O=C(OC[C@H]1O[C@@H](OC(=O)c2cc(O)c(O)c(OC(=O)c3cc(O)c(O)c(O)c3)c2)[C@H](OC(=O)c2cc(O)c(O)c(OC(=O)c3cc(O)c(O)c(O)c3)c2)[C@@H](OC(=O)c2cc(O)c(O)c(OC(=O)c3cc(O)c(O)c(O)c3)c2)[C@@H]1OC(=O)c1cc(O)c(O)c(OC(=O)c2cc(O)c(O)c(O)c2)c1)c1cc(O)c(O)c(OC(=O)c2cc(O)c(O)c(O)c2)c1
Result string: YES

Query string: Follow-up item: CCOCCO
Result string: NO

Query string: Follow-up item: C[C@](N)(Cc1ccc(O)c(O)c1)C(=O)O
Result string: NO

---

# Procedure Summary: BSK_3C_Vis: BioMAP Diversity Plus: 3C Assay for Morphology Visualization (AID 2283025);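 also: fitted both ways so gain or loss versus DMSO counts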
# Condition Details: primary human endothelial cells (HUVEC)
Activity calls are given as the source filed them. How the source made its calls: active means hit-call score of the fitted dose curve at least 0.9, where 1 is the maximum; inactive means score below 0.9.
Write down the outcome that applies. Available outcomes: T = active, F = inactive

Solved cases (10 shown):
Query string: Please state the recorded outcome for this compound: Cc1c(-c2cccnc2)c2ccccc2n1CCCCC(=O)O
Result string: F

Query string: Follow-up item: CCCC(=O)OCC
Result string: F

Query string: Follow-up item: Nc1cccc(N)c1
Result string: F

Query string: Follow-up item: O=C1CCCCCN1
Result string: F

Query string: Follow-up item: CC(C)CCCCCCCOC(=O)CCCCC(=O)OCCCCCCCC(C)C
Result string: F

Query string: Follow-up item: Cc1ccc(N)cc1O
Result string: F

Query string: Follow-up item: COC(=O)c1c(Cl)c(Cl)c(C(=O)OC)c(Cl)c1Cl
Result string: T

Query string: Follow-up item: O=C1OC(=O)C2C3C=CC(C3)C12 (centres undefined)
Result string: F

Query string: Follow-up item: CCOCCO
Result string: F

Query string: Follow-up item: CCCN(C1CCN(C(=O)C2CCNCC2)CC1)[C@@H]1CCc2ccc(OC)cc2C1
Result string: F

Consider now this further compound.
Query string: Please state the recorded outcome for this compound: CC1=CC(=O)CC(C)(C)C1
Result string: F
